Target: T1, human ACVR2A (human, UniProt P27037 20-135, limits assumed); also: test concentration or dose not given here
T1 construct: also called activin receptor, type II A
T1 sequence (P27037 20-135 limits assumed): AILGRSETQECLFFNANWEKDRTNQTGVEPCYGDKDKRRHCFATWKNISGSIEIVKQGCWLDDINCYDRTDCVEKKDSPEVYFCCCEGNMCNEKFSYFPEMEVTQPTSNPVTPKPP
Experiment: ELISA
Description: The binding of ACVR2A-specific monoclonal antibodies to human ACVR2A, mouse ACVR2A, biotinylated goat anti-human kappa light chain (positive control) and human Fc (negative control) were determined by ELISA.
Reported optical density is given for each of the following binders.
Numbers only here, please. The scale is OD.

A selection of reference data follows.
365_H07 (antibody, V domains shown, Group III) VH: EVQLLESGGGLVQPGGSLRLSCAASGFTFDSYSMNWVRQAPGKGLEWVSGINYNGGYTSYADSVKGRFTISRDNSKNTLYLQMNSLRAEDTAVYYCARGANWHDTHLDYWGQGTLVTVSS VL: DIQMTQSPSSLSASVGDRVTITCRASQSISTYVNWYQQKPGKAPKLLIYAATSRHSGVPSRFSGSGSGTDFTLTISSLQPEDFATYYCQQSYENPLTFGGGTKVEIK ... 2.51
367_F06 (antibody, V domains shown, Group I) VH: EVQLLESGGGLVQPGGSLRLSCAASGFTFSSYGMNWVRQAPGKGLEWVSSINYNSGYTSYADSVKGRFTISRDNSKNTLYLQMNSLRAEDTAVYYCARAANWHDTALDYWGQGTLVTVSS VL: DIQMTQSPSSLSASVGDRVTITCRASQSISSYVNWYQQKPGKAPKLLIYAVTSRASGVPSRFSGSGSGTDFTLTISSLQPEDFATYYCQQSYDSPLTFGGGTKVEIK ... 2.01
371_D12 (antibody, V domains shown, Group I) VH: EVQLLESGGGLVQPGGSLRLSCAASGFTFDSYGMNWVRQAPGKGLEWVSGINYNGGYKSYADSVKGRFTISRDNSKNTLYLQMNSLRAEDTAVYYCARAANWHDTALDYWGQGTLVTVSS VL: DIQMTQSPSSLSASVGDRVTITCRASQSILSYLNWYQQKPGKAPKLLIYAATSRASGVPSRFSGSGSGTDFTLTISSLQPEDFATYYCQQSYELPLTFGGGTKVEIK ... 1.89
374_B01 (antibody, V domains shown, Group II) VH: EVQLLESGGGLVQPGGSLRLSCAASGFTFDSYGMHWVRQAPGKGLEWVAGINYNSGYTSYADSVKGRFTISRDNSKNTLYLQMNSLRAEDTAVYYCARAATWHDTHLDYWGQGTLVTVSS VL: DIQMTQSPSSLSASVGDRVTITCRASQSILSYLNWYQQKPGKAPKLLIYAASSLQSGVPSRFSGSGSGTDFTLTISSLQPEDFATYYCQQSYDSPLTFGGGTKVEIK ... 3.14

Consider 374_A12 (antibody, V domains shown, Group II) VH: EVQLLESGGGLVQPGGSLRLSCAASGFTFDSYGMHWVRQAPGKGLEWVSSINYNGGYTSYADSVKGRFTISRDNSKNTLYLQMNSLRAEDTAVYYCARAATWHDTHLDYWGQGTLVTVSS VL: DIQMTQSPSSLSASVGDRVTITCRASQSILTYLNWYQQKPGKAPKLLIYAATSRASGVPSRFSGSGSGTDFTLTISSLQPEDFATYYCQQSDSNPLTFGGGTKVEIK . Its measured optical density is 3.31
